# Target Under Test: natural human Fc region prepared by papain digestion of human monoclonal IgG (Chugai Pharmaceutical Co., Ltd.) (human)
# Experiment Summary: SPR Biacore T100, Fc immobilized on CM5, peptide as analyte
Test Readout: Kd (nM)
Please reply with the bare figure in nM and do not write the unit itself.

Past entries and their recorded results:
Binder	Test Readout	Units	Recorded Value
p17-2 peptide (designed binder) GPGISAFSPGRGVYDPETGTWYDAAWHLGELVWATYYDPETGTWEPDWQRMLGQ	Kd	nM	1.6
DAAWHLGELVWATYYDPETGTWQPDWLYMTTR [pep14 peptide]	Kd	nM	120

Entry DAAWHLGELVWATYYDPETGTWLPDWQTMAQK [pep21 peptide] : reported Kd = ? 100

Another binder: DAAWHLGELVWATYYDPETGTWAPDWRLMQGQ [pep11 peptide] 510
